The reader will find pIC50 measurements below, all made with WEE1 (Homo sapiens, UniProt P30291).
Sequence (P30291 whole entry): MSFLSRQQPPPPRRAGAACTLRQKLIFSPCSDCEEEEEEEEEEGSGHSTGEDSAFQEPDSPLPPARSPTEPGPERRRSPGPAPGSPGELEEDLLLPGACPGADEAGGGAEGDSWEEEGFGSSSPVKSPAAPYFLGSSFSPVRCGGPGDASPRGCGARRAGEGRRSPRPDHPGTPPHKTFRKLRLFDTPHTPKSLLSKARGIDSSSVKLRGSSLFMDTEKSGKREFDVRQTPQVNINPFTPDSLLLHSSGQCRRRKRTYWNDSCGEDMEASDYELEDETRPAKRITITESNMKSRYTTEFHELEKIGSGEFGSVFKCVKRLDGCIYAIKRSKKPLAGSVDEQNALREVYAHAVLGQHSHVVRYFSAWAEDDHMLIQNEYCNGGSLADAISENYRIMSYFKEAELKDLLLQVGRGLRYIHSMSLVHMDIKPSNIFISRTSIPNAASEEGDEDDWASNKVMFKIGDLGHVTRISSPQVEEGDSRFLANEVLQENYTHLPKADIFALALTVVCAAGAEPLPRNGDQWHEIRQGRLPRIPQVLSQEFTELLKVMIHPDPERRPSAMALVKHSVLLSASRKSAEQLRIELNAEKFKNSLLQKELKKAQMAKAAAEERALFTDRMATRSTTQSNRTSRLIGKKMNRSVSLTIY
pIC50: −log10 of the molar value.

Answered cases to consult:
COMPOUND	OBSERVED_RESULT
Cc1cc(-c2c(C)ccc(O)c2C)c2ncnc(N)c2n1 [Compound 74-B]	< 6.00
Cc1ccc(O)c(C)c1-c1nc(N(C)[C@H]2[C@@H]3COC[C@@H]32)cc2c(N)ncnc12 [Compound 61-B]	< 6.00
Cc1ccc(O)c(C)c1-c1nc(N(C)C2CCC2)cc2c(N)ncnc12 (single isomer, unassigned) [Compound 37-B]	6.00 to 7.00

query: pIC50 of Cc1ccc(O)c(C)c1-c1nc(C(C)C)cc2c(N)ncnc12 (single isomer, unassigned) [Compound 50-B] on WEE1 (Homo sapiens, UniProt P30291)?
result: < 6.00

query: Moving on to the next compound: Cc1ccc(O)c(C)c1-c1nc(N(C)CC(F)(F)F)cc2c(N)ncnc12 (single isomer, unassigned) [Compound 29-B]
result: < 6.00

query: Would you kindly repeat that for Cc1ccc(O)c(C)c1-c1nc(N=S(C)(C)=O)cc2c(N)ncnc12 (single isomer, unassigned) [Compound 8-B] ?
result: < 6.00

query: Now consider Cc1ccc(O)c(C)c1-c1nc(NS(C)(=O)=O)cc2c(N)ncnc12 (single isomer, unassigned) [Compound 16-B] and answer again.
result: < 6.00

query: Request: Cc1ccc(O)c(C)c1-c1nc(N(C)CCO)cc2c(N)ncnc12 (racemic) [Compound 47-A]
result: < 6.00

---

Measured pIC50 accompanies every entry in the list below.
target: UniProtKB Q99640; assay: LanthaScreen Eu Kinase Binding Assay, PKMYT1
pIC50: −log10 of the molar value.

Solved cases (4 shown):
COMPOUND	pIC50
Cc1ccc(O)c(C)c1-c1nc(N(C)CC(F)F)cc2c(N)ncnc12 (single isomer, unassigned) [Compound 28-B]	> 8.00
Cc1ccc(O)c(C)c1-c1nc(N2CCOCC2)cc2c(N)ncnc12 (single isomer, unassigned) [Compound 7-B]	> 8.00
Cc1ccc(O)c(C)c1-c1cc(C2CC2)nc2c(N)ncnc12 [Compound 76-B]	> 8.00
Cc1ccc(O)c(C)c1-c1nc(-c2cnn(C)c2)cc2c(N)ncnc12 (single isomer, unassigned) [Compound 19-B]	> 8.00

query: # lookup: pIC50 of Cc1ccc(O)c(C)c1-c1cc(C2=CCOCC2)nc2c(N)ncnc12 [Compound 71-B]
result: > 8.00

query: Next compound: CC[C@H](C)N(C)c1cc2c(N)ncnc2c(-c2c(C)ccc(O)c2C)n1 (single isomer, unassigned) [Compound 45-B]
result: 7.00 to 8.00

query: Now the compound CO[C@H]1C[C@@H](N(C)c2cc3c(N)ncnc3c(-c3c(C)ccc(O)c3C)n2)C1 [Compound 62-B]
result: > 8.00

query: And then Cc1ccc(O)c(C)c1-c1cc(N(C)C2CC2)nc2c(N)ncnc12 [Compound 75-B] , what is it?
result: 7.00 to 8.00

query: What would you report for Cc1ccc(O)c(C)c1-c1c(C)c(N(C)C)cc2c(N)ncnc12 (single isomer, unassigned) [Compound 51-B] ?
result: 7.00 to 8.00

query: Moving on to Cc1ccc(O)c(C)c1-c1nc(N2CCC(F)(F)C2)cc2c(N)ncnc12 (single isomer, unassigned) [Compound 2-B]
result: > 8.00

query: Moving on to the next compound: Cc1ccc(O)c(C)c1-c1nc(N2CC[C@](C)(O)C2)cc2c(N)ncnc12 (single isomer, unassigned) [Compound 13-E]
result: 7.00 to 8.00

---

Target protein (sequence): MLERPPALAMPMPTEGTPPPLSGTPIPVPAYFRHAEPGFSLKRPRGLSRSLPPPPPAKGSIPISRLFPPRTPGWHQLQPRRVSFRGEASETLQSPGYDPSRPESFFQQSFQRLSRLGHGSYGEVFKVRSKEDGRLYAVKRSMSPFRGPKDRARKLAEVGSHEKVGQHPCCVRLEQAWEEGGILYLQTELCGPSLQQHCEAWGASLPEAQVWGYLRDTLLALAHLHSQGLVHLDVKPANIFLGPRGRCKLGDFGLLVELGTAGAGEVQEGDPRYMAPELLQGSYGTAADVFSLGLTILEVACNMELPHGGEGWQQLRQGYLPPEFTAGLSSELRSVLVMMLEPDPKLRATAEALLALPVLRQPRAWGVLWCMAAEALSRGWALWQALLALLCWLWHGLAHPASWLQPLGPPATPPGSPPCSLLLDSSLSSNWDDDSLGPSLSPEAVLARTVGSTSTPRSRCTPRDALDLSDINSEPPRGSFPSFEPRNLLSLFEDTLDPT
Recorded IC50 values for a group of molecules are listed next.

Please review the entries below; each comes with its answer.
MOLECULE	PROPERTY_MEASURED	OBSERVED_RESULT
Cc1ccc(O)c(C)c1-c1nc(N(C)C2(C(F)(F)F)CC2)cc2c(N)ncnc12 (single isomer, unassigned)	IC50	< 0.01 µM
Cc1ccc(O)c(C)c1-c1nc(N(C)C2CC2)cc2c(N)ncnc12 (single isomer, unassigned)	IC50	< 0.01 µM

Proceeding to the next molecule to report its IC50.
query: Look at this molecule and give its reported IC50. Cc1ccc(O)c(C)c1-c1nc(N2CCC(O)CC2)cc2c(N)ncnc12 (single isomer, unassigned)
result: < 0.01 µM

---

Sequence of the target: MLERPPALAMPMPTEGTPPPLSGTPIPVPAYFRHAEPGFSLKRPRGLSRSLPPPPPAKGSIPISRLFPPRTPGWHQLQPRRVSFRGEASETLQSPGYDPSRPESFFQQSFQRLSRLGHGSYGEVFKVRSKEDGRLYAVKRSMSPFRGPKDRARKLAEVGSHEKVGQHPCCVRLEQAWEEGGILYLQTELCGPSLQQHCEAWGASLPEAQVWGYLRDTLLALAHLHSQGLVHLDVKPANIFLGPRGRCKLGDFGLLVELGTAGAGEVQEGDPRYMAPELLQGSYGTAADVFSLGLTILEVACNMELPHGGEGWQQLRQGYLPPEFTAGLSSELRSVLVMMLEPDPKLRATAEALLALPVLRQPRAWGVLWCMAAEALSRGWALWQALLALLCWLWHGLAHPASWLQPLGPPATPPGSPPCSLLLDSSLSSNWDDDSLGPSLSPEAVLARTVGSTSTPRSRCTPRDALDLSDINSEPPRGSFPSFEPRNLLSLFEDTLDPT
Items are presented alongside their recorded IC50.

Recorded IC50, per entry:
COMPOUND	IC50
Cc1ccc(O)c(C)c1-c1cc(N(C)C)nc2c(N)ncnc12	10 to 100 nM
Cc1ccc(O)c(C)c1-c1nc(N(C)c2cnn(C)c2)cc2c(N)ncnc12 (single isomer, unassigned)	< 10 nM
Cc1ccc(O)c(C)c1-c1nc(N(C)CC(F)(F)F)cc2c(N)ncnc12 (single isomer, unassigned)	< 10 nM
Cc1ccc(O)c(C)c1-c1nc(C2=CCOCC2)cc2c(N)ncnc12 (single isomer, unassigned)	< 10 nM
C#Cc1cc2c(N)ncnc2c(-c2c(C)ccc(O)c2C)n1 (single isomer, unassigned)	< 10 nM

query: Report IC50 for COC[C@@H]1CCN1c1cc2c(N)ncnc2c(-c2c(C)ccc(O)c2C)n1 (single isomer, unassigned) please.
result: 10 to 100 nM

query: Likewise for Cc1ccc(O)c(C)c1-c1nc(C(F)(F)F)cc2c(N)ncnc12 (single isomer, unassigned) ?
result: 10 to 100 nM

query: Then this compound: [2H]C([2H])([2H])N(c1cc2c(N)ncnc2c(-c2c(C)ccc(O)c2C)n1)C1CC1
result: < 10 nM

---

pIC50: −log10 of the molar value.
Here's a batch of compounds along with measured pIC50 for PKMYT1 (Homo sapiens).

COMPOUND	PROPERTY_MEASURED	OBSERVED_RESULT
Cc1ccc(O)c(C)c1-c1nc(N(C)C2CCC2)cc2c(N)ncnc12 (single isomer, unassigned)	pIC50	> 8.00
Cc1ccc(O)c(C)c1-c1nc(-c2ccncc2)cc2c(N)ncnc12	pIC50	> 8.00
Cc1ccc(O)c(C)c1-c1nc(N(C)CC2CC2)cc2c(N)ncnc12 (single isomer, unassigned)	pIC50	> 8.00
Cc1ccc(O)c(C)c1-c1nc(N2CC[C@@](C)(F)C2)cc2c(N)ncnc12 (single isomer, unassigned)	pIC50	> 8.00
Cc1ccc(O)c(C)c1-c1nc(N2CC[C@](C)(F)C2)cc2c(N)ncnc12 (single isomer, unassigned)	pIC50	> 8.00
COCCN(C)c1cc2c(N)ncnc2c(-c2c(C)ccc(O)c2C)n1 (single isomer, unassigned)	pIC50	7.00 to 8.00

query: // pIC50 lookup, key: Cc1cc(-c2c(C)ccc(O)c2C)c2ncnc(N)c2c1 (single isomer, unassigned)
result: 7.00 to 8.00

---

Measured pIC50 (WEE1 (Homo sapiens, UniProt P30291))
pIC50: −log10 of the molar value.

Please review the following examples before continuing.
COMPOUND	pIC50
C=C(C)c1cc2c(N)ncnc2c(-c2c(C)ccc(O)c2C)n1 (single isomer, unassigned) [Compound 57-B]	< 6.00
Cc1ccc(O)c(C)c1-c1nc(N(C)C2CCCC2)cc2c(N)ncnc12 (single isomer, unassigned) [Compound 44-B]	6.00 to 7.00
Cc1ccc(O)c(C)c1-c1nc(N(C)C2(C(F)(F)F)CC2)cc2c(N)ncnc12 (single isomer, unassigned) [Compound 42-B]	6.00 to 7.00
Cc1ccc(O)c(C)c1-c1cc(C2CC2)nc2c(N)ncnc12 [Compound 76-B]	< 6.00
Cc1ccc(O)c(C)c1-c1cc(N(C)C2CC2)nc2c(N)ncnc12 [Compound 75-B]	< 6.00

query: If you can, please state the reported pIC50 value of [2H]C([2H])([2H])N(c1cc2c(N)ncnc2c(-c2c(C)ccc(O)c2C)n1)[C@H]1[C@@H]2COC[C@@H]21 [Compound 63-B] .
result: < 6.00

query: Same question for Cc1ccc(O)c(C)c1-c1nc(CC(=O)N2CCOCC2)cc2c(N)ncnc12 (single isomer, unassigned) [Compound 35-B] please.
result: < 6.00
